Target: IGF-1R Ba/F3 (Homo sapiens, UniProt P08069)
Construct: fused on or other part: TEL- (or BCR-) IGF-1R in Ba/F3: the kinase part holds the site
Sequence (P08069 999-1274 limits assumed): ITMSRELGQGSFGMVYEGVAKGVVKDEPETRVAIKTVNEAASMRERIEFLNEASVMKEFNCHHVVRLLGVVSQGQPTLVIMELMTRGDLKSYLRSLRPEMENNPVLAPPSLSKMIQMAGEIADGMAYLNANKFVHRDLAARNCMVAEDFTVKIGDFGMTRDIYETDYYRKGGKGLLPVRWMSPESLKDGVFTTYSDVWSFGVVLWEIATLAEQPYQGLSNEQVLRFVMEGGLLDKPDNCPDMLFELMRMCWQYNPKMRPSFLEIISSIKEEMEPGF
Assay: Ba/F3 Cell Viability Inhibition Assay (IGF-1R Ba/F3)
Settings: Tel-TK transformed Ba/F3 cells, 48 hours, Britelite luminescence
Provide the recorded IC50 for the entries that follow.
Hi! Could you send only the number? It should be in µM, unit omitted.

The recorded IC50 for CNC(C)(C)C(=O)N1CCC(c2cc(C)c(Nc3ncc(Cl)c(Nc4cc(C)[nH]n4)n3)cc2Cl)CC1 [Compound 88] is 0.007

The recorded IC50 for CNC(=O)CN1CCC(c2cc(C)c(Nc3ncc(Cl)c(Nc4cc(C)[nH]n4)n3)cc2C)CC1 [Compound 38] is 0.01

The recorded IC50 for Cc1cc(Nc2nc(Nc3cc(C)c(C4CCN(Cc5ccncc5)CC4)cc3F)ncc2Cl)n[nH]1 [Compound 288] is 0.093

The recorded IC50 for Cc1cc(Nc2nc(Nc3cc(C)c(C4CCN(C)CC4)cc3OC(C)C)ncc2Cl)n[nH]1 [Compound 3] is 0.104

The recorded IC50 for Cc1cc(Nc2nc(Nc3cc(C)c(C4CCN(C(=O)CN(C)C)CC4)cc3F)ncc2Cl)n[nH]1 [Compound 73] is 0.019

The recorded IC50 for Cc1noc(CN2CCC(c3cc(F)c(Nc4ncc(Cl)c(Nc5cc(C)[nH]n5)n4)cc3C)CC2)n1 [Compound 293] is 0.026

The recorded IC50 for CC(=O)N1CCC(c2cc(C)c(Nc3ncc(Cl)c(Nc4cc(C)[nH]n4)n3)cc2C)CC1 [Compound 110] is 0.013

====

Provide the recorded pIC50 for the entries that follow.
Biological target: IGF-1R Ba/F3 (Homo sapiens)
Construct: fused on or other part: TEL- (or BCR-) IGF-1R in Ba/F3: the kinase part holds the site
Experiment: Ba/F3 Cell Viability Inhibition Assay (IGF-1R Ba/F3)
Details: Tel-TK transformed Ba/F3 cells, 48 hours, Britelite luminescence
// returns pIC50 (minus log10 of molar concentration), number only

Here Cc1cc(Nc2nc(Nc3cc(C)c(C4CCN(C(=O)C5(N(C)C)CC5)CC4)cc3F)ncc2Cl)n[nH]1 was tested on IGF-1R Ba/F3 (Homo sapiens), and its pIC50 came to 7.89

Here Cc1cc(Nc2nc(Nc3cc(C)c(C4CCN(C(=O)c5nc(C)oc5C(F)(F)F)CC4)cc3F)ncc2Cl)n[nH]1 was tested on IGF-1R Ba/F3 (Homo sapiens), and its pIC50 came to 7.16

Here Cc1cc(Nc2nc(Nc3cc(C)c(C4CCN(C5CCOCC5)CC4)cc3C)ncc2Cl)n[nH]1 was tested on IGF-1R Ba/F3 (Homo sapiens), and its pIC50 came to 7.85

Here Cc1cc(Nc2ncc(Cl)c(Nc3cc[nH]n3)n2)c(OC(C)C)cc1C1CCN(C)CC1 was tested on IGF-1R Ba/F3 (Homo sapiens), and its pIC50 came to 6.48

Here Cc1cc(Nc2nc(Nc3cc(C)c(C4CCN(S(=O)(=O)CCCN5CCCC5)CC4)cc3C)ncc2Cl)n[nH]1 was tested on IGF-1R Ba/F3 (Homo sapiens), and its pIC50 came to 7.27

Here CNC(=O)CN1CCC[C@H](c2cc(C)c(Nc3ncc(Cl)c(Nc4cc(C)[nH]n4)n3)cc2C)C1 (single isomer, unassigned) was tested on IGF-1R Ba/F3 (Homo sapiens), and its pIC50 came to 7.59

Here Cc1cc(Nc2nc(Nc3cc(C)c(C4CCN(CCS(C)(=O)=O)CC4)cc3C)ncc2Cl)n[nH]1 was tested on IGF-1R Ba/F3 (Homo sapiens), and its pIC50 came to 8.22

Here CNC(=O)C(C)N1CCC(c2cc(C)c(Nc3ncc(Cl)c(Nc4cc(C)[nH]n4)n3)cc2C)CC1 (stereo not drawn) was tested on IGF-1R Ba/F3 (Homo sapiens), and its pIC50 came to 8.22

Here Cc1cc(Nc2nc(Nc3cc(C)c(C4CCN(C(=O)n5cnnn5)CC4)cc3F)ncc2Cl)n[nH]1 was tested on IGF-1R Ba/F3 (Homo sapiens), and its pIC50 came to 6.86

Here Cc1cc(Nc2nc(Nc3cc(C)c(C4CCN(C(=O)c5c(C)noc5C)CC4)cc3F)ncc2Cl)n[nH]1 was tested on IGF-1R Ba/F3 (Homo sapiens), and its pIC50 came to 7.74

Here Cc1cc(Nc2nc(Nc3cc(C)c(C4CCN(CC(N)=O)C(C)C4)cc3F)ncc2Cl)n[nH]1 (stereo not drawn) was tested on IGF-1R Ba/F3 (Homo sapiens), and its pIC50 came to 8.22

Here CNC(=O)C(C)N1CCC(c2cc(F)c(Nc3ncc(Cl)c(Nc4cc(C)[nH]n4)n3)cc2C)CC1 (stereo not drawn) was tested on IGF-1R Ba/F3 (Homo sapiens), and its pIC50 came to 7.66

Here Cc1cc(Nc2nc(Nc3cc(C)c(C4CCN(Cc5nc(C(C)C)no5)CC4)cc3C)ncc2Cl)n[nH]1 was tested on IGF-1R Ba/F3 (Homo sapiens), and its pIC50 came to 7.74

Here Cc1cc(Nc2nc(Nc3cc(C)c(C4CCN(C(=O)[C@@H]5CCCCN5C(C)C)CC4)cc3F)ncc2Cl)n[nH]1 was tested on IGF-1R Ba/F3 (Homo sapiens), and its pIC50 came to 7.92

Here Cc1cc(Nc2nc(Nc3cc(C)c(C4CCN(C5CC5)CC4)cc3C)ncc2Cl)n[nH]1 was tested on IGF-1R Ba/F3 (Homo sapiens), and its pIC50 came to 7.60

Here Cc1cc(Nc2nc(Nc3cc(C)c(C4CCN(C(=O)OCCN(C)C)CC4)cc3F)ncc2Cl)n[nH]1 was tested on IGF-1R Ba/F3 (Homo sapiens), and its pIC50 came to 7.28

Here Cc1cc(Nc2nc(Nc3cc(C)c(C4CCN(C(=O)C5(O)CC5)CC4)cc3F)ncc2Cl)n[nH]1 was tested on IGF-1R Ba/F3 (Homo sapiens), and its pIC50 came to 7.68

Here Cc1cc(Nc2nc(Nc3cc(C)c(C4CCN(CC5CC5(F)F)CC4)cc3C)ncc2Cl)n[nH]1 (stereo not drawn) was tested on IGF-1R Ba/F3 (Homo sapiens), and its pIC50 came to 7.49

Here Cc1cc(Nc2nc(Nc3cc(C)c(C4=CCNCC4)cc3F)ncc2Cl)n[nH]1 was tested on IGF-1R Ba/F3 (Homo sapiens), and its pIC50 came to 7.60

Here Cc1cc(Nc2nc(Nc3cc(C)c(C4CCN(C(=O)CCN(C)C)CC4)cc3C)ncc2Cl)n[nH]1 was tested on IGF-1R Ba/F3 (Homo sapiens), and its pIC50 came to 7.14

Here Cc1cc(Nc2nc(Nc3cc(C)c(C4CCN(C(=O)NCCN(C)C)CC4)cc3F)ncc2Cl)n[nH]1 was tested on IGF-1R Ba/F3 (Homo sapiens), and its pIC50 came to 7.22

Here CNC(=O)CN1CCC(c2cc(C)c(Nc3ncc(Cl)c(Nc4cc(C5CC5)[nH]n4)n3)cc2C)CC1 was tested on IGF-1R Ba/F3 (Homo sapiens), and its pIC50 came to 8.22

Here Cc1cc(Nc2ncc(Cl)c(Nc3cc(C4CC4)[nH]n3)n2)c(F)cc1C1CCN(CC(N)=O)CC1 was tested on IGF-1R Ba/F3 (Homo sapiens), and its pIC50 came to 7.31

Here Cc1cc(Nc2nc(Nc3cc(C)c(C4CCNCC4)cc3F)ncc2C(F)(F)F)n[nH]1 was tested on IGF-1R Ba/F3 (Homo sapiens), and its pIC50 came to 6.82

Here Cc1cc(Nc2nc(Nc3cc(C)c(C4CCN(C)CC4)cc3OC(C)C)ncc2C)n[nH]1 was tested on IGF-1R Ba/F3 (Homo sapiens), and its pIC50 came to 6.09

Here COCCN1CCC(c2cc(C)c(Nc3ncc(Cl)c(Nc4cc(C)[nH]n4)n3)cc2C)CC1 was tested on IGF-1R Ba/F3 (Homo sapiens), and its pIC50 came to 7.89

Here Cc1cc(Nc2nc(Nc3cc(C)c(C4CCN(C5=CC(=O)CC5)CC4)cc3F)ncc2Cl)n[nH]1 was tested on IGF-1R Ba/F3 (Homo sapiens), and its pIC50 came to 7.32

Here COC(=O)c1cc(Nc2ncc(Cl)c(Nc3cc(C)[nH]n3)n2)c(C)cc1C1CCN(C)CC1 was tested on IGF-1R Ba/F3 (Homo sapiens), and its pIC50 came to 7.57

Here Cc1cc(Nc2nc(Nc3cc(C)c(C4CCN(CC(N)=O)CC4)cc3C)ncc2Cl)n[nH]1 was tested on IGF-1R Ba/F3 (Homo sapiens), and its pIC50 came to 7.89

Here Cc1cc(Nc2nc(Nc3cc(C)c(C4CCN(C5CCC5)CC4)cc3F)ncc2Cl)n[nH]1 was tested on IGF-1R Ba/F3 (Homo sapiens), and its pIC50 came to 7.30

Value source: patent US8859574B2
